The values you see were collected from ChEMBL document CHEMBL1156597.

CC50 listing for selected compounds.
- System: DU-145
- protocol.text: Cytotoxicity against human DU145 cells after 48 hrs by SRB assay
- Type: functional, cell-based
- particulars: Homo sapiens, DU-145, 48 h; read-out: LC50 (the source's name)
# unit: nM | format: bare number

molecule	measurement.target	reported.property	unit.symbol	result
C/C=C1\NC(=O)[C@H](Cc2ccc(O)cc2)NC(=O)[C@@H](C(C)C)NC(=O)[C@@H]([C@H](C)CC)NC(=O)[C@H](NC(=O)[C@H](NC(=O)[C@H](CCCN)NC(=O)[C@H]2CCCN2C(=O)[C@H](NC(=O)[C@@H](NC(=O)[C@@H](NC(=O)[C@H](NC(=O)CC[C@@H](C)CC)C(C)C)[C@@H](C)O)C(C)C)C(C)C)[C@H](C)CC)[C@H](C)OC(=O)[C@H](C(C)C)NC1=O	DU-145	CC50	nM	1930
C/C=C1\NC(=O)[C@H](Cc2ccccc2)NC(=O)[C@@H](C(C)C)NC(=O)[C@@H]([C@H](C)CC)NC(=O)[C@H](NC(=O)[C@H](NC(=O)[C@H](CCCN)NC(=O)[C@H]2CCCN2C(=O)[C@H](NC(=O)[C@@H](NC(=O)[C@@H](NC(=O)[C@H](NC(=O)CCCCCCC)C(C)C)[C@@H](C)O)C(C)C)C(C)C)[C@H](C)CC)[C@H](C)OC(=O)[C@H](C(C)C)NC1=O	DU-145	CC50	nM	758
C/C=C1\NC(=O)[C@H](Cc2ccccc2)NC(=O)[C@@H](C(C)C)NC(=O)[C@@H]([C@H](C)CC)NC(=O)[C@H](NC(=O)[C@H](NC(=O)[C@H](CCCNC(=O)C(F)(F)F)NC(=O)[C@H]2CCCN2C(=O)[C@H](NC(=O)[C@@H](NC(=O)[C@@H](NC(=O)[C@H](NC(=O)CC[C@@H](C)CC)C(C)C)[C@@H](C)OC(=O)C(F)(F)F)C(C)C)C(C)C)[C@H](C)CC)[C@H](C)OC(=O)[C@H](C(C)C)NC1=O	DU-145	CC50	nM	931
CC[C@@H](C)[C@@H](NC(=O)[C@H](CCCN)NC(=O)[C@H]1CCCN1C(=O)[C@H](NC(=O)[C@@H](NC(=O)[C@@H](NC(=O)[C@H](NC(=O)CCCC(C)C)C(C)C)[C@@H](C)O)C(C)C)C(C)C)C(=O)N[C@H]1C(=O)N[C@H]([C@H](C)CC)C(=O)N[C@H](C(C)C)C(=O)N[C@@H](Cc2ccccc2)C(=O)NC(C)(C)C(=O)N[C@@H](C(C)C)C(=O)O[C@H]1C	DU-145	CC50	nM	1170

Problem: Fill in the recorded CC50 for this compound, with DU-145 as test system: C/C=C1\NC(=O)[C@H](Cc2ccccc2)NC(=O)[C@@H](C(C)C)NC(=O)[C@@H]([C@H](C)CC)NC(=O)[C@H](NC(=O)[C@H](NC(=O)[C@H](CCCN)NC(=O)[C@H]2CCCN2C(=O)[C@H](NC(=O)[C@@H](NC(=O)[C@@H](NC(=O)[C@@H](Cc2ccccc2)NC(=O)CCCC(C)C)[C@@H](C)O)C(C)C)C(C)C)[C@H](C)CC)[C@H](C)OC(=O)[C@H](C(C)C)NC1=O
Result: 1600

Problem: Kindly state the measured CC50 obtained for C/C=C1\NC(=O)[C@H](Cc2ccccc2)NC(=O)[C@@H](C(C)C)NC(=O)[C@@H](C(C)C)NC(=O)[C@H](NC(=O)[C@H](NC(=O)[C@H](CCCN)NC(=O)[C@H]2CCCN2C(=O)[C@H](NC(=O)[C@@H](NC(=O)[C@@H](NC(=O)[C@H](NC(=O)CCCC(C)C)C(C)C)[C@@H](C)O)C(C)C)C(C)C)C(C)C)[C@H](C)OC(=O)[C@H](C(C)C)NC1=O with DU-145.
Result: 1020

Problem: # returns recorded CC50 (system: DU-145) for C/C=C1\NC(=O)[C@H](Cc2ccccc2)NC(=O)[C@@H](C(C)C)NC(=O)[C@@H]([C@H](C)CC)NC(=O)[C@H](NC(=O)[C@H](NC(=O)[C@H](CCCN)NC(=O)[C@H]2CCCN2C(=O)[C@H](NC(=O)[C@@H]2CCCN2C(=O)[C@@H](NC(=O)[C@H](NC(=O)CCCC(C)C)C(C)C)[C@@H](C)O)C(C)C)[C@H](C)CC)[C@H](C)OC(=O)[C@H](C(C)C)NC1=O
Result: 1650
